Field: pEC50. Provide a value for each of the compounds that follow.
assayed-target: soluble guanylate cyclase (sGC) (Rattus norvegicus, UniProt P20595)
test-method-notes: Stimulation of sGC enzyme activity (PPi/luciferase detection)
condition-parameters: sGC enzyme in vitro; read-out: EC50 (concentration at 50% of maximum efficacy), activating action at the sGC enzyme
Numbers only, as −log10 of the molar value.

Past entries and their recorded results:
compound: O=C(NCCCCC1(C(=O)O)CC1)C(c1ccc(Cn2nc(-c3ccccc3)ccc2=O)cc1)C1CCCC1 (stereo not drawn)
assayed-target: soluble guanylate cyclase (sGC) (Rattus norvegicus, UniProt P20595)
pEC50: 6.19

compound: CCC(C)C(C(=O)NCCCCC1(C(=O)O)CC1)c1ccc(CN2N=C(c3ccccc3)OCC2=O)cc1 (single isomer, unassigned; (+))
assayed-target: soluble guanylate cyclase (sGC) (Rattus norvegicus, UniProt P20595)
pEC50: 5.82

// below: pEC50 requested for another compound
Item: CC(C(C(=O)NCCCCC1(C(=O)O)CC1)c1ccc(CN2N=C(c3ccccc3)OCC2=O)cc1)C(F)(F)F (stereo not drawn) | pEC50: 6.74

###

assayed-target: soluble guanylate cyclase (sGC) (Rattus norvegicus)
Construct: made in house; host or cells: baculovirus/Sf9 insect cells
test-method-notes: Stimulation of sGC enzyme activity (PPi/luciferase detection)
Assay type: biochemical
condition-parameters: sGC enzyme in vitro
Field: MEC (minimum effective concentration), activating action at the sGC enzyme. Provide a value for each of the compounds that follow.
Numbers only, in nM.

compound: CCC(C)C(C(=O)NCCCCC1(C(=O)O)CC1)c1ccc(CN2N=C(c3ccccc3)OCC2=O)cc1 (single isomer, unassigned; (+)) [Example 5]
readout-number: 58

Go through the list and state MEC (minimum effective concentration), activating action at the sGC enzyme for each entry.
1. O=C(NCCCCC1(C(=O)O)CC1)C(c1ccc(Cn2nc(-c3ccccc3)ccc2=O)cc1)C1CCCC1 (stereo not shown) [Example 20]
2. O=C(NCCCCC1(C(=O)O)CC1)C(c1ccc(CN2N=C(c3ccccc3)OCC2=O)cc1)C1CCCC1 (single isomer, unassigned; (+)) [Example 1]
3. CC(C(C(=O)NCCCCC1(C(=O)O)CC1)c1ccc(CN2N=C(c3ccccc3)OCC2=O)cc1)C(F)(F)F (stereo not shown) [Example 24]

Outgoing:
1. 13
2. 51
3. 5.5

###

Field: MEC (minimum effective concentration), sGC-activating activity in the CHO reporter cell. Provide a value for each of the compounds that follow.
assayed-target: sGC (Rattus norvegicus)
Construct: expressed in transfected cells; host or cells: CHO reporter cell line
Sequence (P20595 1-619): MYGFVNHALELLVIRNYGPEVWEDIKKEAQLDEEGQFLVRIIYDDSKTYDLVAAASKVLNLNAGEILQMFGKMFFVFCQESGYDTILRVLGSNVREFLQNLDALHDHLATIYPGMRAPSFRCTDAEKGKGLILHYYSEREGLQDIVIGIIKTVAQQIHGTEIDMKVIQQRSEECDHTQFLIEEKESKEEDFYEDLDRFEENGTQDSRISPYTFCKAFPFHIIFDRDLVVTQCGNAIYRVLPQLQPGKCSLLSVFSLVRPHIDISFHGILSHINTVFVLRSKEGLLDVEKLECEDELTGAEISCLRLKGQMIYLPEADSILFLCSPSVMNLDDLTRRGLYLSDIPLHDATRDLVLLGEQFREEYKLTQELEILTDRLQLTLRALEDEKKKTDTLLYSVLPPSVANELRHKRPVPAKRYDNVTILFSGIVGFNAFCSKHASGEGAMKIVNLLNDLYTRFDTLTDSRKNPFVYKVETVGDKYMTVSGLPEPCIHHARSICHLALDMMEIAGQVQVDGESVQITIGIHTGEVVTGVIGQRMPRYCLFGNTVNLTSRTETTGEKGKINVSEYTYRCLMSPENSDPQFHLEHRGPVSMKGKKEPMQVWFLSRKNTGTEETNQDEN
Sequence (P19686 1-690 partner): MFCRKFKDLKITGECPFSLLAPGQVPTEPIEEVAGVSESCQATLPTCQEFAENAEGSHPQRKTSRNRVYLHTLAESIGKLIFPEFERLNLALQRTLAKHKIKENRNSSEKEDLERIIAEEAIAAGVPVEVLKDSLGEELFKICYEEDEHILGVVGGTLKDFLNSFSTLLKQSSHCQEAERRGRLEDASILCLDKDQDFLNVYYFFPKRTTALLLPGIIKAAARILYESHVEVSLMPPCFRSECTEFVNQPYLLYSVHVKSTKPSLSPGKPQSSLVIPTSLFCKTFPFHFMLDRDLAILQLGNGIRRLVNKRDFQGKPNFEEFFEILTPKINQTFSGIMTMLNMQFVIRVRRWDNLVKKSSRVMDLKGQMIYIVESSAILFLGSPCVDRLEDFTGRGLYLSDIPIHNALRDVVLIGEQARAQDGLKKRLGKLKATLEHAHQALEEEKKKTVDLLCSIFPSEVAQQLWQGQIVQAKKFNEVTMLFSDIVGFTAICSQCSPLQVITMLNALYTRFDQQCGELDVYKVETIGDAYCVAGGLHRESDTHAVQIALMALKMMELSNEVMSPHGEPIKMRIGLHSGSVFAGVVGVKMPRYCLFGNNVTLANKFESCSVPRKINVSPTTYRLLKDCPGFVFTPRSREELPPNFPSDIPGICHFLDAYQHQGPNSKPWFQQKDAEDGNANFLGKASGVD
test-method-notes: sGC-activating activity in the CHO reporter cell in vitro
Type: cell-based
Answers are plain numbers, in nM.

Past entries and their recorded results:
compound: CC(CCCCNC(=O)C(c1ccc(CN2N=C(c3ccccc3)OCC2=O)cc1)C1CCCC1)C(=O)O (single isomer, unassigned; (+)) [Example 10]
units: nM
readout-number: 100
//
compound: O=C(NCCCCC1(C(=O)O)CC1)C(c1ccc(Cn2nc(-c3ccccc3)ccc2=O)cc1)C1CCCC1 (stereo not drawn)
units: nM
readout-number: 3

// below: MEC (minimum effective concentration), sGC-activating activity in the CHO reporter cell requested for another compound
Item: O=C(NC/C=C/CC1(C(=O)O)CC1)C(c1ccc(CN2N=C(c3ccccc3)OCC2=O)cc1)C1CCCC1 (single isomer, unassigned; (-)) | MEC (minimum effective concentration), sGC-activating activity in the CHO reporter cell: 20

Hello, the source for this data is patent US8642592B2, in case you need it.
